- target: ACL (Homo sapiens (Human))
- Sequence (P53396 other isoform, or with tags, fused parts or gaps isoform P53396-2): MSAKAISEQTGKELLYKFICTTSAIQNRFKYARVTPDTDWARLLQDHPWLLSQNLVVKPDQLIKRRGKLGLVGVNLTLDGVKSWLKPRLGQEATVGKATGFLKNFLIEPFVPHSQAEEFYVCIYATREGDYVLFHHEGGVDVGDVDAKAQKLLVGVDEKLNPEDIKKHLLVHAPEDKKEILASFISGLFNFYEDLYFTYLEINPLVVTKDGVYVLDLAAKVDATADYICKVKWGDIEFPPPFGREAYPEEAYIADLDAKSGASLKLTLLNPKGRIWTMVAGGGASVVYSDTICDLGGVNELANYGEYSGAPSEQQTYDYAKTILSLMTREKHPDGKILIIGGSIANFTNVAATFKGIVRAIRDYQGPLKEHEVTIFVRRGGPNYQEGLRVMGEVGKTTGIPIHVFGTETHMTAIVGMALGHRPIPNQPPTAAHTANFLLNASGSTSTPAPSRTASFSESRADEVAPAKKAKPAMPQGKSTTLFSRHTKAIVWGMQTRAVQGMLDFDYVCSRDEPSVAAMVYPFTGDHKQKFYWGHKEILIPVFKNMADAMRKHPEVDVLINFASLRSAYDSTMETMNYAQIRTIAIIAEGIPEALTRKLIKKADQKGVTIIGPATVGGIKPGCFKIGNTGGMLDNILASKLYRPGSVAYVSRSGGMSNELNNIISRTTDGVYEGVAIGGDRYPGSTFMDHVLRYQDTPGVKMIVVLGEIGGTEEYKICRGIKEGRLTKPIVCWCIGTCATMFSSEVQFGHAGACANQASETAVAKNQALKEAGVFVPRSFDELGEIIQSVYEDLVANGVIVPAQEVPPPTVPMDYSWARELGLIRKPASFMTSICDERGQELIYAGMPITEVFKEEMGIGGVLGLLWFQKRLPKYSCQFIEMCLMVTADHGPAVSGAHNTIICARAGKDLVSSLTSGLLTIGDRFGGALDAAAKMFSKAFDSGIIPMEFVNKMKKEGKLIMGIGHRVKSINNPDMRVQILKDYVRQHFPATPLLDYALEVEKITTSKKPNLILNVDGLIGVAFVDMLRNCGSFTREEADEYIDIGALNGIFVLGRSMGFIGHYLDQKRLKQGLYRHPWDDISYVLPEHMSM
- experimental.protocol: ADP-Glo Assay
endpoint: IC50

O=C(O)c1ccc(-c2ccccc2)cc1NS(=O)(=O)c1cc(Cl)cc(Cl)c1 [I-208]; 50 to 500 nM
Cc1c(-c2ccccc2)ccc(C(=O)O)c1NS(=O)(=O)c1cc(Cl)cc(C(F)(F)F)c1 [I-365]; 500 to 20000 nM
O=C(O)c1ccc(-c2ccccc2)cc1NS(=O)(=O)c1ccccc1-c1ccno1 [I-336]; 500 to 20000 nM
O=C(O)c1c(NS(=O)(=O)c2cc(Cl)cc(Cl)c2)sc2ccccc12 [I-361]; 500 to 20000 nM
O=S(=O)(Nc1ccccc1OCc1ccccc1)c1cc(Cl)cc(Cl)c1O [I-15]; 500 to 20000 nM
COc1ccc(-c2ccccc2)cc1NS(=O)(=O)c1cccc(C(=O)O)c1 [I-406]; > 20000 nM
COC(=O)c1cc(Cl)c(O)c(S(=O)(=O)Nc2cc(-c3cccnc3)ccc2OC)c1 [I-48]; 50 to 500 nM
COc1c(Cl)cc(C(=O)O)cc1S(=O)(=O)Nc1cc(-c2ccccc2)ccc1F [I-70]; 500 to 20000 nM
CN(C(=O)c1cc(Cl)cc(Cl)c1)c1cc(-c2ccccc2)ccc1C(=O)O [I-347]; 500 to 20000 nM
COc1ccc(-c2ccccc2)cc1NS(=O)(=O)c1cc(CC(=O)O)cc(Cl)c1OC [I-439]; > 20000 nM
O=C(O)c1ccc(-c2ccccc2)cc1NCc1cc(Cl)cc(Cl)c1 [I-267]; 500 to 20000 nM
O=C(O)c1cc(Cl)ccc1NS(=O)(=O)c1cc(Cl)cc(Cl)c1 [I-343]; 500 to 20000 nM
O=C(Nc1cc(-c2ccccc2)c(F)cc1F)c1cc(Br)cc(Cl)c1O [I-139]; 500 to 20000 nM
Cc1c(S(=O)(=O)Nc2cc(-c3ccccc3)ccc2C(=O)O)c2ccccc2n1C [I-335]; 500 to 20000 nM
COc1ccc(F)cc1S(=O)(=O)Nc1cc(-c2ccccc2)ccc1C(=O)O [I-315]; 500 to 20000 nM
COC(=O)c1cc(Cl)c(O)c(S(=O)(=O)Nc2ccc(F)c(-c3ccccc3)c2F)c1 [I-110]; 500 to 20000 nM
N#Cc1cc(Cl)cc(S(=O)(=O)Nc2cc(-c3ccccc3)ccc2C(=O)O)c1 [I-226]; 500 to 20000 nM
COc1ccc(-c2ccccc2)cc1NS(=O)(=O)c1cc(C#N)cc(Cl)c1O [I-58]; 50 to 500 nM
COc1cccc(CCNS(=O)(=O)c2cc(Cl)cc(Cl)c2O)c1 [I-188]; 500 to 20000 nM
COc1ccccc1S(=O)(=O)Nc1cc(-c2ccccc2)ccc1F [I-441]; > 20000 nM
O=S(=O)(Nc1cc(-n2nccn2)c(F)cc1F)c1cc(Cl)cc(Cl)c1O [I-290]; 500 to 20000 nM
O=S(=O)(Nc1ccc(OCc2ccccc2)cc1)c1cc(Cl)cc(Cl)c1O [I-171]; 500 to 20000 nM
O=C(O)c1ccc(-c2ccccc2)cc1NS(=O)(=O)c1ccc2[nH]ncc2c1 [I-301]; 500 to 20000 nM
O=C(O)c1ccc(-c2ccccc2)cc1NS(=O)(=O)c1cccc(-n2cnnn2)c1 [I-372]; 500 to 20000 nM
O=C(O)COc1c(Cl)cc(Cl)cc1S(=O)(=O)Nc1cc(-c2ccccc2)c(F)cc1F [I-77]; 500 to 20000 nM
O=C(c1cc(Cl)c(O)c(S(=O)(=O)Nc2cc(-c3ccccc3)c(F)cc2F)c1)N1CCCCC1 [I-102]; 50 to 500 nM
O=C(O)c1ccc(-c2ccccc2)cc1NS(=O)(=O)c1cc(Cl)c(Cl)s1 [I-311]; 500 to 20000 nM
COc1ccc(-c2ccccc2)cc1NS(=O)(=O)c1cc(C(N)=O)cc(Cl)c1OC [I-432]; > 20000 nM
CCC(=O)Oc1ccccc1S(=O)(=O)Nc1cc(-c2ccccc2)ccc1F [I-121]; 500 to 20000 nM
COc1ccc(-c2ccccc2)cc1NS(=O)(=O)c1cc(C(=O)O)cs1 [I-408]; > 20000 nM
O=C(O)c1ccc(-c2ccccc2)cc1NS(=O)(=O)Cc1ccc(C(F)(F)F)cc1 [I-299]; 500 to 20000 nM
COc1ccc(-c2cccnc2)cc1NS(=O)(=O)c1cc(C(=O)O)cc(Cl)c1OC [I-425]; > 20000 nM
CC(C)(C)C(=O)Oc1c(Cl)cc(C(=O)N2CCC2)cc1S(=O)(=O)Nc1cc(-c2ccccc2)c(F)cc1F [I-210]; 500 to 20000 nM
Nc1cc(-c2ccccc2)ccc1NS(=O)(=O)c1cc(Cl)cc(Br)c1O [I-57]; 500 to 20000 nM
O=S(=O)(Nc1cc(-c2ccccc2)c(F)cc1F)c1cccc2ccccc12 [I-376]; > 20000 nM
O=C(O)c1ccc(-c2ccccc2)cc1NS(=O)(=O)c1cc(Br)cc(C(F)(F)F)c1 [I-306]; 50 to 500 nM

###

- target: UniProtKB P53396
- experimental.protocol: ADP-Glo Assay
endpoint: IC50

O=S(=O)(Nc1cc(-c2ccccc2)c(F)cc1F)c1cc(CO)cc(Cl)c1O; 0.05 to 0.5 µM
O=C(O)c1ccc(F)c(NS(=O)(=O)c2cc(Cl)cc(Cl)c2O)c1; 0.5 to 20 µM
O=C(Nc1cc(-c2ccccc2)ccc1C(=O)O)c1cc(Cl)cc(Cl)c1; 0.5 to 20 µM
COc1ccc(-c2ccccc2)cc1NS(=O)(=O)c1cc(Cl)cc(Cl)c1N; > 20 µM
COc1ccc(-c2ccccc2)cc1NS(=O)(=O)c1cc(Cl)cc(Cl)c1C(=O)O; > 20 µM
O=S(=O)(Nc1cc(-c2ccccc2)ccc1F)c1cc(Cl)cc(Cl)c1OC1COC1; 0.5 to 20 µM
O=C(O)c1cc(-c2ccccc2)sc1NS(=O)(=O)c1cc(Cl)cc(Cl)c1; 0.5 to 20 µM
O=S(=O)(Nc1cc(-c2ccccc2)ccc1O)c1cccc(-c2nn[nH]n2)c1; 0.5 to 20 µM
O=C(O)c1ccc(-c2ccccc2)cc1NS(=O)(=O)c1cccc(Cl)c1; 0.5 to 20 µM
O=C(O)c1cc(F)c(-c2ccccc2)cc1NCc1cc(Cl)cc(Cl)c1; 0.5 to 20 µM
O=C(O)c1ccc(-c2ccccc2)cc1NS(=O)(=O)CCC1CCCC1; 0.5 to 20 µM
O=S(=O)(Nc1cc(-c2ccccc2)c(F)cc1F)c1ccccc1O; 0.5 to 20 µM
N#Cc1cc(Cl)cc(S(=O)(=O)Nc2cc(-c3cc4ccccc4s3)c(F)cc2F)c1; 0.5 to 20 µM
CC(C)Cc1csc(NS(=O)(=O)c2cc(Cl)cc(Cl)c2O)c1C(=O)N1CCOCC1; 0.5 to 20 µM
O=C(O)c1ccccc1NS(=O)(=O)c1cc(Cl)cc(Cl)c1; > 20 µM
COc1c(Cl)cc(Cl)cc1S(=O)(=O)Nc1cc(C(=O)O)ccc1F; > 20 µM
O=S(=O)(Nc1cc(-c2ccccc2)c(F)cc1F)c1cccc(-c2nn[nH]n2)c1; 0.5 to 20 µM
COc1ccc(C(=O)O)cc1S(=O)(=O)Nc1cc(-c2ccccc2)c(F)cc1F; > 20 µM
COc1ccc(-c2ccccc2)cc1NS(=O)(=O)c1cc(C(=O)N(C)C)cc(Cl)c1O; 0.05 to 0.5 µM

###

- target: UniProtKB P53396
- experimental.protocol: ADP-Glo Assay
pIC50: −log10 of the molar value.
endpoint: pIC50

COc1cc(-c2ccccc2)ccc1NS(=O)(=O)c1cc(Cl)cc(Cl)c1C; < 4.70
O=C(O)c1ccc(-c2ccccc2)cc1NS(=O)(=O)c1cncc(Cl)c1; 4.70 to 6.30
O=C(O)c1cc(F)c(-c2ccccc2)cc1NS(=O)(=O)c1cc(Cl)cc(Cl)c1; 6.30 to 7.30
O=C(O)c1ccc(C(F)(F)F)cc1NS(=O)(=O)c1cc(Cl)cc(Cl)c1; 4.70 to 6.30
COc1ccc(Br)cc1S(=O)(=O)Nc1cc(-c2ccccc2)c(F)cc1F; < 4.70
O=S(=O)(Nc1cc(-c2ccccc2)c(F)cc1F)c1cccc(Cl)c1F; 4.70 to 6.30
COc1ccc(-c2ccccc2)cc1NS(=O)(=O)c1cc(Cl)cc(-c2nn[nH]n2)c1; 4.70 to 6.30
O=C(c1cc(Cl)c(O)c(S(=O)(=O)Nc2cc(-c3ccncc3)ccc2F)c1)N1CCC1; 6.30 to 7.30
COc1ccc(CN(C)S(=O)(=O)c2cc(Cl)cc(Cl)c2O)cc1; 4.70 to 6.30

###

Here the recorded IC50 is given for each entry.
- Test system: HepG2 cells
- protocol.conditions: Homo sapiens, HepG2, read-out: ACLY HepG2 14C-Pyruvate Assay serum free IC50 FA (IC50) [μM]
endpoint: IC50

O=C(Nc1cc(-c2ccccc2)ccc1C(=O)O)c1cc(Cl)cc(C(F)(F)F)c1 [I-349]; 1 to 10 µM
COCc1cc(Cl)c(O)c(S(=O)(=O)Nc2cc(-c3ccccc3)c(F)cc2F)c1 [I-91]; 1 to 10 µM
COC(=O)c1cc(Cl)c(O)c(S(=O)(=O)Nc2cc(-c3cccnc3)ccc2OC)c1 [I-48]; > 10 µM
COc1c(Cl)cc(C(F)(F)F)cc1S(=O)(=O)Nc1cc(-c2ccccc2)ccc1C(=O)O [I-296]; 1 to 10 µM
